test system: MOLM1 and UCSD/AML1 (averaged); assay: cell viability relative to DMSO control (POC); higher = less growth inhibition; conditions: 1 µM; 72 h
About 180 (8.6%) of roughly 2,100 compounds showed an effect of 50% or more. The sample holds strong results, similar compounds and a random draw of the others, so the mix is not that of the screen.
measurement-kind: cell viability (%)
Give bare numbers, in %.

Solved cases (5 shown):
| compound | measured-number |
| --- | --- |
| Cc1ccc(S(=O)(=O)C=CC#N)cc1 | 1.01 |
| COc1cc(OC)c(/C=C/S(=O)(=O)Cc2ccc(OC)c(NCC(=O)O)c2)c(OC)c1 | 41.4 |
| CC1(C)CC[C@]2(C(=O)O)CC[C@]3(C)C(=CCC4[C@@]5(C)CC[C@@H](O)C(C)(C)C5CC[C@]43C)C2C1 (stereo partly drawn) | 102 |
| COc1cc2oc3cc(OC)c(OC)c(CC=C(C)C)c3c(=O)c2c(O)c1CC=C(C)C | 99.9 |
| O=c1cc(-c2ccc(O)cc2)oc2cc(O[C@@H]3O[C@H](CO)[C@@H](O)[C@H](O)[C@H]3O[C@@H]3OC[C@](O)(CO)[C@H]3O)cc(O)c12 | 119 |

For every item in the list below, what is its measured cell viability?
1. COc1c2ccoc2cc2oc(C)cc(=O)c12
2. CS(=O)(=O)Nc1ccc([N+](=O)[O-])cc1Oc1ccccc1

Return:
1: 104; 2: 96.7

###

Could you please report measured cell viability for the items listed next?
system: MOLM1 and UCSD/AML1 (averaged); assay: cell viability relative to DMSO control (POC); higher = less growth inhibition; settings: 1 µM; 72 h
The campaign covered roughly 2,100 compounds. About 180 (8.6%) showed an effect of 50% or more. For the sample, strong results were picked, then their nearest neighbours and some compounds at random.
Answers are plain numbers, in %.

| compound | units-of-measure | measured-number |
| --- | --- | --- |
| Cc1ccc(O)c([C@H](CCN(C(C)C)C(C)C)c2ccccc2)c1 | % | 92.5 |
| C[C@@H]1O[C@@H](O[C@H]2[C@H](O[C@H]3CC[C@@]4(C)[C@@H](CC[C@]5(C)[C@@H]4CC=C4[C@@H]6CC(C)(C)CC[C@]6(C(=O)O[C@@H]6O[C@H](CO[C@@H]7O[C@H](CO)[C@@H](O[C@@H]8O[C@@H](C)[C@H](O)[C@@H](O)[C@H]8O)[C@H](O)[C@H]7O)[C@@H](O)[C@H](O)[C@H]6O)CC[C@]45C)[C@]3(C)CO)OC[C@H](O)[C@@H]2O)[C@H](O)[C@H](O)[C@H]1O | % | 89.5 |
| CC(=O)O[C@@H]1C[C@H]2C(C)(C)[C@@H](O)CC[C@]2(C)[C@H]2CC[C@@]3(C)[C@H](c4ccoc4)OC(=O)[C@H]4O[C@]43[C@@]21C [beta-DIHYDROGEDUNOL] | % | 90.3 |
| NCCC(=O)N[C@@H](Cc1c[nH]cn1)C(=O)O | % | 89.7 |

Shifting focus to the compound that follows.
Enquiry: Item "Cc1c(C(=O)O)c(O)cc2c1C(=O)c1c(O)c([C@@H]3O[C@H](CO)[C@@H](O)[C@H](O)[C@H]3O)c(O)c(O)c1C2=O" has what recorded cell viability?
Return: 92.5

###

system: MOLM1 and UCSD/AML1 (averaged); assay: cell viability relative to DMSO control (POC); higher = less growth inhibition; conditions: 1 µM; 72 h
About 180 (8.6%) of roughly 2,100 compounds showed an effect of 50% or more. Shown is part of a subset that was picked to be rich in strong results.
measurement-kind: cell viability (%)
Numbers only, in %.

Sample records with cell viability:
| molecule | units-of-measure | measured-number |
| --- | --- | --- |
| COc1cc2c(cc1OC)Cc1cc(OC)c(OC)cc1Cc1cc(OC)c(OC)cc1C2 | % | 113 |
| CC[C@H](C)[C@H](N)C1=N[C@H](C(=O)N[C@@H](CC(C)C)C(=O)N[C@H](CCC(=O)O)C(=O)N[C@H](C(=O)N[C@H]2CCCCNC(=O)[C@H](CC(N)=O)NC(=O)[C@@H](CC(=O)O)NC(=O)[C@H](Cc3cnc[nH]3)NC(=O)[C@@H](Cc3ccccc3)NC(=O)[C@H]([C@@H](C)CC)NC(=O)[C@@H](CCCN)NC2=O)[C@@H](C)CC)CS1 | % | 94.8 |
| CC(C)C1=CC2=CC[C@@H]3[C@](C)(CCC[C@@]3(C)C(=O)O)[C@H]2CC1 | % | 103 |
| CC(=O)O[C@@H]1CC2C(C)(C)C(=O)CC[C@]2(C)C2CC[C@]3(C)C(=CC(=O)O[C@H]3c3ccoc3)[C@@]21C (stereo not given in full) | % | 110 |

Dear reader, for each entry below, please note its cell viability.
1. COc1nc(C)cnc1NS(=O)(=O)c1cccnc1-c1ccc(-c2nnco2)cc1 [Zibotentan (ZD4054)]
2. CC[C@H](/C=C/[C@@H](C)[C@H]1CC[C@H]2[C@@H]3CC=C4C[C@@H](O)CC[C@]4(C)[C@H]3CC[C@]12C)C(C)C

Return:
[71.2, 107]

Please supply cell viability for each of the following items, keeping them in order.
1. O=c1c2ccccc2oc2ccccc12
2. CC(=O)C1=C(O)C=C2Oc3c(C(C)=O)c(O)c(C)c(O)c3C2(C)C1=O (stereo in doubt)
3. C=C1/C(=C\C=C2/CCC[C@]3(C)[C@@H]([C@H](C)/C=C/[C@H](C)C(C)C)CC[C@@H]23)C[C@@H](O)C[C@@H]1O
4. O=C(CC(=O)c1ccccc1)c1ccccc1
5. O=C(O)CCCc1ccccc1
6. COc1ccc(S(=O)(=O)Nc2cccnc2Nc2ccc(O)cc2)cc1
7. CC(=O)Oc1cc(-c2coc3cc(OC(C)=O)c(OC(C)=O)c(OC(C)=O)c3c2=O)cc(OC(C)=O)c1OC(C)=O

Return:
1. 101
2. 113
3. 99.3
4. 80.9
5. 90.8
6. 49.4
7. 93.9

Parameter requested: cell viability. Apply to each item below.
1. CC(C)(C)c1cnc(CSc2cnc(NC(=O)C3CCNCC3)s2)o1
2. O=C(O)C1CC([C@@H]2CCCCN2)CN2CCCCC12 (stereo not given in full)

Return:
1. 2.81
2. 101

# map each molecule to its cell viability
1. CC(C)C[C@@H]1NC(=O)[C@H](CCCN)NC(=O)[C@H](C(C)C)NC(=O)[C@H](Cc2ccc(O)cc2)N[C@@H](CCC(=O)O)C(=O)N[C@@H](CC(N)=O)C(=O)[C@@H](Cc2ccccc2)NC(=O)[C@H](Cc2ccccc2)NC(=O)[C@@H]2CCCN2C(=O)[C@@H](Cc2ccccc2)NC1=O
2. COc1ncc(-c2ccc3nccc(-c4ccnnc4)c3c2)cc1NS(=O)(=O)c1ccc(F)cc1F
3. O=C(O)c1cc(-c2ccc(F)cc2F)ccc1O
4. CO[C@@]12[C@H](COC(N)=O)C3=C(C(=O)C(C)=C(N)C3=O)N1C[C@@H]1N[C@@H]12
5. CC(C)CCC[C@@H](C)[C@H]1CC[C@H]2[C@@H]3C[C@@H](O)[C@@]4(O)C[C@@H](O)CC[C@]4(C)[C@H]3CC[C@]12C

Return:
13
12.4
112
13
102

###

system: MOLM1 and UCSD/AML1 (averaged); test: cell viability relative to DMSO control (POC); higher = less growth inhibition; settings: 1 µM; 72 h
About 180 (8.6%) of roughly 2,100 compounds showed an effect of 50% or more. This is one part of a sample in which strong results are shown more often than they occur.
Please provide measured cell viability for the entries that follow.
Answers are plain numbers, in %.

Answer for every listed entry: what is its cell viability? The entries follow.
1. NCCOB(c1ccccc1)c1ccccc1
2. Cc1coc2c1C(=O)C(=O)c1c-2ccc2c1CCCC2(C)C
3. C[C@@H](Oc1cc(-n2cnc3ccc(CN4CCN(C)CC4)cc32)sc1C(N)=O)c1ccccc1C(F)(F)F

Return:
117
118
19.5

Enquiry: Field request: cell viability | item: "C/C(=C\C(=O)Nc1ccccc1C(=O)O)c1ccc2ccccc2c1"
Return: 104

###

Consider the following compounds; for each one, report its cell viability.
system: MOLM1 and UCSD/AML1 (averaged); assay: cell viability relative to DMSO control (POC); higher = less growth inhibition; conditions: 1 µM; 72 h
The whole screen tested about 2,100 compounds, of which about 180 (8.6%) showed an effect of 50% or more. Many of the other results were omitted from the sample, so strong results are more common in it than they were.
Answers are plain numbers, in %.

Worked examples, 3 compounds total:
| compound | cell viability / % |
| --- | --- |
| O=C(O)Cc1cc(I)c(Oc2cc(I)c(O)c(I)c2)c(I)c1 | 97.8 |
| CNc1ccccc1C(=O)N1CCc2c([nH]c3ccccc23)C1=O | 88.5 |
| COc1ccc(-c2cc(=O)c3c(OC)c(OC)c(OC)cc3o2)cc1OC | 105 |

Give cell viability for all compounds that follow.
1. c1ccc(-c2nn3c(c2-c2ccnc4cc(OCCN5CCOCC5)ccc24)CCC3)nc1
2. O=C(O)c1cc(=O)c2cccc(O)c2[nH]1
3. CCC(C)C(=O)OC1[C@@H]2CC3=C4CC(=O)O[C@@H](c5ccoc5)[C@]4(C)CCC3[C@@](C)(C2=O)[C@@H](CC(=O)OC)C1(C)C (stereo partly drawn)

Return:
1: 94.6; 2: 102; 3: 99.4

Give one value of cell viability per listed compound.
1. CCNC(=O)CC[C@H](N)C(=O)O
2. CC(=O)OCC(=O)[C@@]1(O)CC[C@H]2[C@@H]3C[C@H](C)C4=CC(=O)C=C[C@]4(C)[C@H]3[C@@H](O)C[C@@]21C [6alpha-METHYLPREDNISOLONE ACETATE]

Return:
[92.2, 65]
